Each recorded value in this set is attributed to the supplement of paper PMC11451515.

// reported cell viability per item
system: P12-Ichikawa; assay: cell viability relative to DMSO control; higher = less cytotoxic; details: RPMI 5 mM glucose + 10% FBS; 48 h; 0.000781 µM
# value in %; strip the unit string

Examples with their reported cell viability follow.
{"MOLECULE": "Nc1ncnc2c1ncn2[C@@H]1O[C@H](CO)C[C@H]1O", "TARGET OR SYSTEM": "P12-Ichikawa", "EXPERIMENTAL RESULT": 87.9}
{"MOLECULE": "N[C@@H]1CONC1=O", "TARGET OR SYSTEM": "P12-Ichikawa", "EXPERIMENTAL RESULT": 95.6}
{"MOLECULE": "Cc1ccnc2c1NC(=O)c1cccnc1N2C1CC1", "TARGET OR SYSTEM": "P12-Ichikawa", "EXPERIMENTAL RESULT": 98.3}
{"MOLECULE": "COc1ccc(C(=O)CC2(O)C(=O)Nc3c(Cl)ccc(Cl)c32)cc1 (stereo unspecified)", "TARGET OR SYSTEM": "P12-Ichikawa", "EXPERIMENTAL RESULT": 107}
{"MOLECULE": "Cc1cccc(Nc2ccncc2[S+](=O)([O-])NC(=O)NC(C)C)c1", "TARGET OR SYSTEM": "P12-Ichikawa", "EXPERIMENTAL RESULT": 94.9}

Here is another molecule to look at.
The reported cell viability of the molecule CC(C(=O)O)c1ccc2c(c1)CC(=O)c1ccccc1S2 (stereo unspecified) was 99.3
